subject_of_test: SUMO-conjugating enzyme UBC9 (Homo sapiens) (UniProt P63279)
Sequence (P63279 whole entry, looked up): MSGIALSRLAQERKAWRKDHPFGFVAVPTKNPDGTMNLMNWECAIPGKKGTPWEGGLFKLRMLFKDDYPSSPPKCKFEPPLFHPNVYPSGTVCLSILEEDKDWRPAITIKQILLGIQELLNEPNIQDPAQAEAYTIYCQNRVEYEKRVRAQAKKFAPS
assay_method_text: SUMOylation inhibitor hit validation, confirmation, SUMOylation inhibitor project, biochemical, AlphaScreen (AID 2018)
condition_summary: AlphaScreen in vitro SUMOylation assay; at 35 µM; active compounds read high
Screen size: about 1,200 compounds; about 600 (50%) were called active. The set was probably picked from earlier hits. The list shows a part of the results. Results with a measured potency or affinity are listed apart.
Hi, to clarify the labels: TRUE covers inhibition from 40% upward, FALSE covers anything below 40%.

These recorded examples may help you get a feel for the data.
CCCNC(=O)c1c(N)n(CC2CCCO2)c2nc3ccccc3nc12 (stereo not given): FALSE
CC(C)CCNC(=O)c1c(N)n(CC2CCCO2)c2nc3ccccc3nc12 (stereo not given): FALSE
COCCCn1c(N)c(C(=O)OCCOC)c2nc3ccccc3nc21: FALSE
Nc1c(C(=O)NC2CCCC2)c2nc3ccccc3nc2n1CC1CCCO1 (stereo not given): TRUE
Cc1[nH]n(-c2ccccc2)c(=O)c1C(c1ccc([N+](=O)[O-])cc1)c1c(C)[nH]n(-c2ccccc2)c1=O: TRUE

[in] Textbook exercise: given the entry COCCNC(=O)c1c(N)n(CCC(C)C)c2nc3ccccc3nc12 , state whether its inhibition is greater than or equal to 40%.
[out] FALSE

[in] Let us now turn to CC(C)CCNC(=O)c1c(N)n(Cc2ccc3c(c2)OCO3)c2nc3ccccc3nc12
[out] FALSE

[in] Let us now turn to COc1ccc(Cc2nccc3cc(OC)c(OC)cc23)cc1OC
[out] FALSE

[in] Let us now turn to CC(=O)c1ccc2c(c1)C1C(Cl)C(Sc3ccccc3[N+](=O)[O-])CC1C(c1ccccc1[N+](=O)[O-])N2 (stereo not given)
[out] FALSE

[in] Let us now turn to CC(C)CNC(=O)c1c(N)n(Cc2ccc3c(c2)OCO3)c2nc3ccccc3nc12
[out] FALSE

###

subject_of_test: SUMO-conjugating enzyme UBC9 (Homo sapiens)
assay_method_text: SUMOylation inhibitor hit validation, confirmation, SUMOylation inhibitor project, biochemical, AlphaScreen (AID 2018)
condition_summary: AlphaScreen in vitro SUMOylation assay; at 35 µM
Screen size: about 1,200 compounds; about 600 (50%) were called active. No stated cut-off is given here; in the data, active means inhibition above about 42%; inactive means the rest. The set was probably picked from earlier hits. The list shows a part of the results. Potency and affinity values are given separately.
Pick one and only one: 1 (active), 0 (inactive)

[in] Just curious, what result did COc1ccc(Cn2c(N)c(C(=O)NCc3ccco3)c3nc4ccccc4nc32)cc1 get here?
[out] 0

[in] Let us now turn to CCCCNC(=O)c1c(N)n(CCCOC)c2nc3ccccc3nc12
[out] 1

[in] Let us now turn to CCCCCn1c(N)c(C(=O)NCc2cccs2)c2nc3ccccc3nc21
[out] 0

###

# reported inhibition; entries follow
subject_of_test: SUMO-conjugating enzyme UBC9 (Homo sapiens) (UniProt P63279)
assay_method_text: SUMOylation inhibitor hit validation, confirmation, SUMOylation inhibitor project, biochemical, AlphaScreen (AID 2018)
condition_summary: AlphaScreen in vitro SUMOylation assay; at 35 µM; active compounds read high
The campaign covered roughly 1,200 compounds. About 600 (50%) were called active. The set was probably picked from earlier hits. The list shows a part of the results. Potency and affinity values are given separately.
Record the value in %, omitting the unit from your answer.

CCCCn1c(N)c(C(=O)OCC2CCCO2)c2nc3ccccc3nc21 (stereo not given): 25.4

[in] Using the record for O=C(c1cccn2c(=O)c3ccc(Cl)cc3nc12)N1CCC2(CC1)OCCO2 , report its inhibition.
[out] 20.5

[in] Let us now turn to CCCCn1c(NS(=O)(=O)c2ccccc2)c(C(=O)OCC)c2nc3ccccc3nc21
[out] 101

[in] Let us now turn to CCCCn1c(NS(=O)(=O)c2ccc(C)cc2)c(C(=O)OCC)c2nc3ccccc3nc21
[out] 28.2

[in] Let us now turn to CC(=O)c1ccc2c(c1)C1C(Cl)C(Sc3ccccc3[N+](=O)[O-])CC1C(C(=O)O)N2 (stereo not given)
[out] 102

###

# reported inhibition; entries follow
subject_of_test: SUMO-conjugating enzyme UBC9 (Homo sapiens) (UniProt P63279)
assay_method_text: SUMOylation inhibitor hit validation, confirmation, SUMOylation inhibitor project, biochemical, AlphaScreen (AID 2018)
condition_summary: AlphaScreen in vitro SUMOylation assay; at 35 µM; active compounds read high
About 600 (50%) of roughly 1,200 compounds were called active. The set was probably picked from earlier hits. This is one part of the list. Results with a measured potency or affinity are listed apart.
Record the value in %, omitting the unit from your answer.

Cc1ccsc1C(=O)C1CCCN(Cc2ccc(-n3cccn3)cc2)C1 (centres undefined): -14.4
COCCCn1c(N)c(C(=O)NCc2ccco2)c2nc3ccccc3nc21: -8.5
O=C(O)CC1OCC=C2CN3CCC45C6=CC(=O)C(=O)C([N+](=O)[O-])=C6NC4C1C2CC35 (centres undefined): 102
CCCCn1c(N)c(C(=O)NCc2cccs2)c2nc3ccccc3nc21: 51.4
Cc1cc(/C=C2\C(=O)NC(=O)N(Cc3ccccc3)C2=O)c(C)n1-c1ccc(Cl)c(C(=O)O)c1: 102
CN1CCC2(CC1)C(C#N)=C(N)NC(S)=C2C#N: 38.8

[in] Using the record for O=C(O)CCn1cc(C=C2C(=O)NC(=O)NC2=O)c(-c2ccc(Br)cc2)n1 , report its inhibition.
[out] 1

[in] Let us now turn to Cc1c(CC(=O)N2C[C@H]3C[C@@H](C2)c2cccc(=O)n2C3)c(=O)oc2c(C)c(O)ccc12
[out] 54.2

[in] Let us now turn to CN1CCN(c2ccc3nccnc3c2)CC1
[out] 6.7
